TARGET ENTITY: UDP-glucuronosyltransferase 2B7 (Homo sapiens, UniProt P16662)
Sequence (P16662 whole entry): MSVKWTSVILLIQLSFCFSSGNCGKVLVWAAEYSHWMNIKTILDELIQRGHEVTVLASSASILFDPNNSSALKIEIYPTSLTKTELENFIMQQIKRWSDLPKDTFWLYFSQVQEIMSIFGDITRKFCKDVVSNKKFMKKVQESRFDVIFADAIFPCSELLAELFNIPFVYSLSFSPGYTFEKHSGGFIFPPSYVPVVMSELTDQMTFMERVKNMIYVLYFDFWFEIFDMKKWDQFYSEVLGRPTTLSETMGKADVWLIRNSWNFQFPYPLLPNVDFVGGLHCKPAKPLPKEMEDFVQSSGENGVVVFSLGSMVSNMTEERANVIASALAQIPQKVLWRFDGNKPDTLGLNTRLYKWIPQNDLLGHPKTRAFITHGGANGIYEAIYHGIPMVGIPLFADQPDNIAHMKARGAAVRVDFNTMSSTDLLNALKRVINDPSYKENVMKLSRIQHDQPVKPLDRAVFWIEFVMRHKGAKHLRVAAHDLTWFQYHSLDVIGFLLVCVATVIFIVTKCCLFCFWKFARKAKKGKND
MEASUREMENT DESCRIPTION: Activity of human recombinant UGT2B7 expressed in baculovirus-infected insect cells assessed as enzyme-mediated glucuronidation per mg of protein after 10 mins in presence of UDPGA
Type: ADME
REPORTED METRIC: Drug metabolism

Kindly indicate its recorded Drug metabolism. Item: COc1ccc(C(=O)Nc2cccc(O)c2NC(=O)c2ccc(N3CCCN(C)CC3)cc2)cc1.O=C(O)CCC(=O)O
< 0.01 nmol/min/mg

----------
Tested on: Liver microsome
MEASUREMENT DESCRIPTION: Unbound intrinsic clearance in human liver microsomes assessed per mg of protein after 10 mins in presence of UDPGA and absence of fatty acid free BSA
Format: ADME
REPORTED METRIC: CL free

Write down CL free measured for item COc1ccc(C(=O)Nc2cccc(O)c2NC(=O)c2ccc(N3CCCN(C)CC3)cc2)cc1.O=C(O)CCC(=O)O
17.4 µL/min/mg
